Measured pIC50 accompanies every entry in the list below.
Molecular target: Recombinant human BRD4 containing dual bromodomains (BRD4-BD12 (1-477)) (Homo sapiens)
Construct: Recombinant human BRD4 containing dual bromodomains (BRD4-BD12 (1-477))
Experiment: BRD4 Alphascreen binding assay
pIC50: −log10 of the molar value.

Recorded results for 2 compounds are shown here.
Query: Fill in: pIC50 of Cc1noc(C)c1-c1cnc2c(c1)c(-c1ccc(C(=O)O)cc1OC(F)(F)F)cn2-c1ncccc1C#CC1CC1 is ___
Result: 3.00 to 5.10

Query: How about COc1cc(C(=O)O)ccc1-c1cn([C@@H](C)c2ccccn2)c2ncc(-c3c(C)noc3C)cc12 ?
Result: 5.10 to 6.00

More entries:
Query: # lookup: pIC50 of Cc1noc(C)c1-c1cnc2c(c1)c(-c1cccc(C(=O)NC#N)c1)cn2Cc1ccccc1
Result: 5.10 to 6.00

Query: Entry Cc1noc(C)c1-c1cnc2c(c1)c(-c1ccc(CC(=O)O)cc1F)cn2-c1ccc(F)cc1F please
Result: 5.10 to 6.00
